Tested on: IGROV-1
Assay: NCI tumour cell line growth inhibition, 48 h
The source made the active and inactive calls. Cut-off read from the data, not from the text of the source: active = GI50 up to about 1.1 µM and inactive = higher.
Labels: active, inactive

compound	label
CO/N=C(/C(=O)OC)c1ccccc1COc1cccc(C(F)(F)F)c1	inactive
CCOc1ncn(-c2ccc(NC(=S)Nc3cnccn3)cc2)n1	inactive
CCc1n[nH]c(=O)n1/N=C/c1ccccc1O	inactive
COC(=O)CCc1cc(OC)c2c(c1)[C@H](C(=O)OC)[C@@H](c1ccc(O)c(OC)c1)O2	inactive
O=C(O)c1ccc2c(O)c(O)ccc2c1	inactive
CN(c1cn(C2CC[C@@H](CO)O2)c(=O)[nH]c1=O)C1CCCCC1 (stereo not given in full)	inactive
COc1cc([C@@H]2c3[nH]c4ccccc4c3C(Nc3ccc([N+](=O)[O-])cc3)[C@H]3COC(=O)N23)cc(OC)c1O (stereo not given in full)	active
CS(=O)(=O)OCCN(CCOS(C)(=O)=O)c1ccc(/C=N/N=c2/nc[nH]c3nc[nH]c23)cc1	inactive
CC(=O)[C@@]1(O)CC[C@H]2[C@@H]3C[C@H](C)C4=CC(=O)CC[C@]4(C)[C@H]3[C@@H](O)C[C@@]21C	inactive
O=C1NC(N2CCCCC2)=N/C1=C\c1cccs1	inactive

* * *

Each record here notes measured GI50.
Test system: DU-145
Experiment: NCI tumour cell line growth inhibition, 48 h
Active and inactive are the calls of the source. No stated cut-off is given here; in the data, active = GI50 up to about 1.1 µM and inactive = higher.

compound	GI50
CC(=O)NC(C)(C)C1CCC(C)=C(c2ccccc2)C1 (stereo not drawn)	> 100 µM (inactive)
Clc1ccc(C(c2ccccc2Cl)C(Cl)Cl)cc1 (stereo not drawn)	3.3 µM (inactive)
O=[N+]([O-])c1cc(-c2ccc([As](=O)(O)O)cc2)ccc1[As](=O)(O)O	> 100 µM (inactive)
CN(C)CCNC(=O)c1cccc2c(NC(CCC(N)=O)C(=O)O)c3ccccc3nc12 (stereo not drawn)	19.5 µM (inactive)
O=C(C[C@H](NC(=O)OCc1ccccc1)C(=O)NC1Cc2ccccc2OC1=O)OCc1ccccc1 (stereo partly drawn)	59.6 µM (inactive)
O=C1N/C(=N/N=C/C(O)C(O)C(O)C(O)CO)N/C1=C\c1c[nH]c2ccccc12 (stereo not drawn)	> 100 µM (inactive)
CC1OC(OC2C(OC(=O)[C@]34CCC(C)(C)C[C@H]3C3=CC[C@@H]5[C@@]6(C)CC[C@H](OC7OC(CO)C(O)C(O)C7OC7OC(CO)C(O)C(O)C7O)C(C)(C)[C@@H]6CC[C@@]5(C)[C@]3(C)CC4)OCC(O)C2O)C(O)C(O)C1OC1OCC(O)C(O)C1O (stereo partly drawn)	11.9 µM (inactive)
O=C(NNCC(F)(F)F)c1ccncc1	> 100 µM (inactive)

* * *

Test system: OVCAR-4
Assay: NCI tumour cell line growth inhibition, 48 h
Calls of active or inactive are those of the source. Cut-off read from the data, not from the text of the source: active = GI50 up to about 1.1 µM and inactive = higher.
Labels: True (active), False (inactive)

molecule	label
COc1cc(C2c3cc4c(cc3[C@@H](Nc3cccc(O)c3)C3COC(=O)[C@H]23)OCO4)cc(OC)c1O (some centres undefined)	False
COc1cccc2c1[C@]1(O)C(O)CCCC21 (some centres undefined)	False
CCC1(N=[N+]=[N-])C(=O)Nc2cc(C)ccc2C1=O (centres undefined)	False
Cc1ccc(S(=O)(=O)Nc2nnc(S(N)(=O)=O)s2)cc1	False
Cc1ccc(C(=O)O)c(/C=C2\Cc3ccc(C)cc3C2=O)c1	False
O=C(Nc1ccc(Sc2ccc(/N=N/c3c(O)c(S(=O)(=O)O)cc4cc(S(=O)(=O)O)ccc34)cc2)cc1)c1ccc(/N=N/c2c(O)c(S(=O)(=O)O)cc3cc(S(=O)(=O)O)ccc23)cc1	False
COc1ccc(CN2C(=O)C(=O)N(C)C2=O)c2ccccc12	False
O=C(O)C1CC=CCC1C(=O)Nc1cccc(O)c1 (centres undefined)	False
COC1OC2=CCC3C(=O)NC(=O)C3C2[C@H](OCc2ccccc2)C1OCc1ccccc1 (some centres undefined)	False
O=C1Nc2ccc(S(=O)(=O)O)cc2/C1=C1/Nc2ccc(Br)cc2C1=O	False
C=C(C)C(=O)OC1CCC2(C)C(CCC3C2CCC2(C)C(c4ccc(=O)oc4)CC4OC432)C1 (centres undefined)	False
CN(C)CCSc1nccc(-c2cc3ccccc3s2)n1	False
COc1ccc(/C=C2/C(=O)C(c3ccccc3)N(c3ccccc3)C2=O)cc1OC (centres undefined)	False
CN(C)c1n2c3cc([N+](=O)[O-])ccc3[n+]3c(N(C)C)n4ccccc4c3c2c2cccc[n+]12.[O-][Cl+3]([O-])([O-])[O-].[O-][Cl+3]([O-])([O-])[O-]	False
N=C(N)Nc1nc2cc(N)ccc2o1	False
CNS(=O)(=O)NNS(=O)(=O)c1cccc([N+](=O)[O-])c1	False
CCN(/C=C1/C(=O)C(c2ccccc2)N(c2ccccc2)C1=O)CC (centres undefined)	False
Cc1c(/N=N/c2ccc([N+](=O)[O-])cc2)nc2scc(-c3ccccc3)n12	False
CN(C)c1ccc(C=c2c3cc(O)ccc3n3c2cc(-c2ccccc2)[n+]3C)cc1	False
CCOC(=O)C1=c2[nH]c3cccc4cccc(c43)n2C(=O)CC1	False
CC(C)(CN1CCOCC1)C(=O)/C=C/c1ccc(/C=C/C(=O)C(C)(C)CN2CCOCC2)cc1	True
CC(=O)c1ccc(NCc2cc(O)ccc2O)cc1	False
C/C(=N\NC(N)=O)C(CN1CCOCC1)C(c1ccccc1)c1c(O)c2ccccc2oc1=O (centres undefined)	False
CC/C(=N/O)C(C)C(=O)CCC(=O)Nc1ccc(Cl)cc1 (centres undefined)	False
CCN(CC)c1nc(N(C)C)c2ccccc2n1	False
CC1=C/C(=N/N2C(=O)/C(=C/c3ccc(Cl)cc3)N=C2c2ccccc2)CC(C)(C)C1	False
CC1=CC(=O)[C@@H](O)[C@]2(C)[C@H]3[C@@]4(O)OC[C@]35[C@H]([C@@H](C)[C@H]4O)[C@@H](O)C(=O)O[C@@H]5C[C@@H]12	True
COc1ccc(-c2cc3[nH]nc(N)c3c(=O)o2)cc1	False
O=C(N/C(=C\c1cc(Cl)ccc1Cl)c1nc2c(O)nc(S)nc2[nH]1)c1ccccc1	False
O=C1N[C@H]2C(=O)c3c(Br)sc(Br)c3[C@H]2O1	False
O=C1N(Cl)C(=O)C(c2ccc(Cl)cc2)(c2ccc(Cl)cc2)N1Cl	False
CC1=NN(c2ccc(S(=O)(=O)O)cc2)C2(C1)SCC(=O)N2c1nc2ccccc2s1 (centres undefined)	False
COc1cccc2c1OC1c3ccccc3OCC1(O)C2 (centres undefined)	False
CC(C)(C)c1cc(C(O)(C(F)(F)F)C(F)(F)F)c2c(c1)C(C(F)(F)F)(C(F)(F)F)OC(c1ccccc1)(C(C)(C)C)N2 (centres undefined)	False
Cn1c(=O)c2[nH]c(/N=N\n3ccc4ccccc43)nc2n(C)c1=O	False
COc1ccc(C2=NN(C(=O)c3ccccc3)C(O)(c3cc(F)c(Cl)cc3Cl)C2)cc1OC (centres undefined)	False
COC(=O)c1ccc(C(=O)OC)c2nc3cc(Cl)ccc3nc12	False
O=C1CSC(/C(=C\c2ccc(Cl)cc2)c2nc3ccccc3[nH]2)=N1	False
C(=N\Nc1nnc2c(n1)[nH]c1ccccc12)/c1cccnc1	False

Ref: ChEMBL document CHEMBL1201862
